# Test system: A172, U87MG, A375, A2058 and Panc0504 cell lines
# experiment.summary: Antiproliferative activity, SRB staining, across the five cancer cell lines
# Type: cell-based
# condition.label: span over A172, U87MG, 72 h
pIC50: −log10 of the molar value.

{"columns": ["compound", "pIC50"],
 "data": [
  ["O=C(NCCCNc1nc(Nc2cccc(NC(=O)N3CCCC3)c2)ncc1I)c1cccs1 [BX795, reference compound]", "4.54 to 5.12"]
]}

---

# target.desc: TBK1 (Homo sapiens, UniProt Q9UHD2)
# Sequence (Q9UHD2 1-729): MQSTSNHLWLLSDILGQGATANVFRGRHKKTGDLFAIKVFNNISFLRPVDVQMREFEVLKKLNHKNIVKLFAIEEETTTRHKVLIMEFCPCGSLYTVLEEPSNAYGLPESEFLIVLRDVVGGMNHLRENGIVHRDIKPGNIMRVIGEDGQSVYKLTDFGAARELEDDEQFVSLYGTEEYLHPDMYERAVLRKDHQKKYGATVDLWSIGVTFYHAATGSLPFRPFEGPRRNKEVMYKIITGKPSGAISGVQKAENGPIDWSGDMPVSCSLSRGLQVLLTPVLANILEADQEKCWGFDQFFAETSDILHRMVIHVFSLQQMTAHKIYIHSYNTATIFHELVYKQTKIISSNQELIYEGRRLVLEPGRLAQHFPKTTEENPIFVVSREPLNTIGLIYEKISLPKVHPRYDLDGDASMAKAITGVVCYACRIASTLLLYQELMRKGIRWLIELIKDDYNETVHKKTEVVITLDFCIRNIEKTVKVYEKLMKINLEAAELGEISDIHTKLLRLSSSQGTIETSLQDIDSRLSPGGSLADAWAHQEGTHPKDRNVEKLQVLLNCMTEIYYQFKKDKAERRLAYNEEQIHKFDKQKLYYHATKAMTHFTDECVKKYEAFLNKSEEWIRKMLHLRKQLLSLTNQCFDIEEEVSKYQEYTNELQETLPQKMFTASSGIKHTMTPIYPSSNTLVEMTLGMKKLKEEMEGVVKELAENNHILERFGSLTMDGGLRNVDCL
# experiment.summary: FRET-based Z'-LYTE TBK1 enzymatic assay
# Assay type: biochemical
# Set-up: purchased Thermo Scientific A31513
# condition.label: compound at 0.1 nM; 100 µM ATP; read-out: TBK1 inhibition (%) 0.1 nM
compounds and their reported inhibition at 0.0001 µM

{"columns": ["compound", "inhibition at 0.0001 µM [%]"],
 "data": [
  ["Cc1nc2c(F)cc(-c3n[nH]c4ncc(-c5cccc(S(N)(=O)=O)c5)cc34)cc2n1C(C)C [Compound 15y]", 33.6],
  ["Cc1nc2c(F)cc(-c3n[nH]c4ncc(-c5ccc(S(N)(=O)=O)cc5)cc34)cc2n1C1CC1 [Compound 15v]", 37.7],
  ["Cc1nc2c(F)cc(-c3n[nH]c4ncc(-c5ccc(S(N)(=O)=O)cc5)cc34)cc2n1C(C)C [Compound 15t]", 43.1],
  ["CCn1cnc2ccc(-c3n[nH]c4ncc(-c5ccc(S(N)(=O)=O)cc5)cc34)cc21 [Compound 15u]", 12.1],
  ["Cc1nc2c(F)cc(-c3c[nH]c4ncc(-c5ccc(S(N)(=O)=O)cc5)cc34)cc2n1C(C)C [Compound 15ab]", 43.1]
]}

---

# target.desc: TBK1 (Homo sapiens)
# Sequence (Q9UHD2 1-729): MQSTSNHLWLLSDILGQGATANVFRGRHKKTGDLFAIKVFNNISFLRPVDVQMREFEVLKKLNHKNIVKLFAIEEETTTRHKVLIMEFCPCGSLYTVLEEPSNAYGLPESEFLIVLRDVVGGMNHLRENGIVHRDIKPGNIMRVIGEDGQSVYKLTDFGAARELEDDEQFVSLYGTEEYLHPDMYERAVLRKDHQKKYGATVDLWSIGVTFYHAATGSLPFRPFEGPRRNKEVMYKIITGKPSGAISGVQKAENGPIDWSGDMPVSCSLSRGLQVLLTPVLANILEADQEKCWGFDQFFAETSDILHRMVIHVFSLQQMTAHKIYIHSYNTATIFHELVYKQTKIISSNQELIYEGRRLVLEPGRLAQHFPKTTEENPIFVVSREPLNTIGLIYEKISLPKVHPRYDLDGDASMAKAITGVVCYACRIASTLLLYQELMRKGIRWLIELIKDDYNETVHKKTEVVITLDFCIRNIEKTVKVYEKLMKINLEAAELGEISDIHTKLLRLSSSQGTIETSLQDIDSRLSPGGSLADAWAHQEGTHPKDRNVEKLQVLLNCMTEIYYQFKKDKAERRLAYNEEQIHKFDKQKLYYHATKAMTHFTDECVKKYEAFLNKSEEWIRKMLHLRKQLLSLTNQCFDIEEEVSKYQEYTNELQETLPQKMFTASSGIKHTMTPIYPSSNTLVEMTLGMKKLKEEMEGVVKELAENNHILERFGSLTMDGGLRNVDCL
# experiment.summary: FRET-based Z'-LYTE TBK1 enzymatic assay
# Type: biochemical
# Design: purchased Thermo Scientific A31513
# condition.label: read-out: TBK1 inhibition (%) 1 μM, compound at 1 μM; 100 µM ATP
Catalogue of inhibition at 1 µM readings, one per entry.
recorded.metric: inhibition at 1 µM (%)

{"columns": ["compound", "recorded.metric", "experimental.value"],
 "data": [
  ["NS(=O)(=O)c1ccc(-c2cnc3[nH]nc(-c4cnn(CCO)c4)c3c2)cc1 [Compound 15o]", "inhibition at 1 µM", -7.4],
  ["COc1ccc(CCNc2n[nH]c3ncc(-c4ccc(CN5CCN(C)CC5)cc4)cc23)cc1 [Compound 12f]", "inhibition at 1 µM", -7.9],
  ["CN1CCN(Cc2ccc(-c3cnc4[nH]nc(NCc5ccc(Cl)cc5Cl)c4c3)cc2)CC1 [Compound 12c]", "inhibition at 1 µM", -6.7],
  ["CN1CCN(Cc2ccc(-c3cnc4[nH]nc(NCc5ccccc5)c4c3)cc2)CC1 [Compound 12a]", "inhibition at 1 µM", -13.6],
  ["CC(C)n1c(C(F)(F)F)nc2c(F)cc(-c3n[nH]c4ncc(-c5cccc(S(N)(=O)=O)c5)cc34)cc21 [Compound 15aa]", "inhibition at 1 µM", 48.3],
  ["CN1CCN(Cc2ccc(-c3cnc4[nH]nc(-c5ccc6[nH]ccc6c5)c4c3)cc2)CC1 [Compound 15a]", "inhibition at 1 µM", 36.5],
  ["CN1CCN(Cc2ccc(-c3cnc4[nH]nc(NCCCN5CCOCC5)c4c3)cc2)CC1 [Compound 12h]", "inhibition at 1 µM", -4.3],
  ["Cc1nc2c(F)cc(-c3n[nH]c4ncc(-c5ccc(S(N)(=O)=O)cc5)cc34)cc2o1 [Compound 15p]", "inhibition at 1 µM", 37.1],
  ["CN1CCN(Cc2ccc(-c3cnc4[nH]nc(-c5ccc(N)cc5)c4c3)cc2)CC1 [Compound 15c]", "inhibition at 1 µM", 47.8],
  ["CN1CCN(Cc2ccc(-c3cnc4[nH]nc(NCCCc5ccccc5)c4c3)cc2)CC1 [Compound 12d]", "inhibition at 1 µM", -5.8],
  ["CN1CCN(Cc2ccc(-c3cnc4[nH]nc(NCCCn5ccnc5)c4c3)cc2)CC1 [Compound 12i]", "inhibition at 1 µM", 19.9],
  ["NS(=O)(=O)c1ccc(-c2cnc3[nH]nc(-c4cnn(CCN5CCOCC5)c4)c3c2)cc1 [Compound 15n]", "inhibition at 1 µM", -15],
  ["CN1CCN(Cc2ccc(-c3cnc4[nH]nc(NCCc5ccccc5)c4c3)cc2)CC1 [Compound 12b]", "inhibition at 1 µM", 5.9],
  ["CN1CCN(Cc2ccc(-c3cnc4[nH]nc(-c5cccc(N)c5)c4c3)cc2)CC1 [Compound 15b]", "inhibition at 1 µM", 14.3],
  ["NS(=O)(=O)c1ccc(-c2cnc3[nH]nc(-c4cnn(C5CCOCC5)c4)c3c2)cc1 [Compound 15l]", "inhibition at 1 µM", -0.6]
]}

---

# target.desc: TBK1 (Homo sapiens)
# Sequence (Q9UHD2 1-729): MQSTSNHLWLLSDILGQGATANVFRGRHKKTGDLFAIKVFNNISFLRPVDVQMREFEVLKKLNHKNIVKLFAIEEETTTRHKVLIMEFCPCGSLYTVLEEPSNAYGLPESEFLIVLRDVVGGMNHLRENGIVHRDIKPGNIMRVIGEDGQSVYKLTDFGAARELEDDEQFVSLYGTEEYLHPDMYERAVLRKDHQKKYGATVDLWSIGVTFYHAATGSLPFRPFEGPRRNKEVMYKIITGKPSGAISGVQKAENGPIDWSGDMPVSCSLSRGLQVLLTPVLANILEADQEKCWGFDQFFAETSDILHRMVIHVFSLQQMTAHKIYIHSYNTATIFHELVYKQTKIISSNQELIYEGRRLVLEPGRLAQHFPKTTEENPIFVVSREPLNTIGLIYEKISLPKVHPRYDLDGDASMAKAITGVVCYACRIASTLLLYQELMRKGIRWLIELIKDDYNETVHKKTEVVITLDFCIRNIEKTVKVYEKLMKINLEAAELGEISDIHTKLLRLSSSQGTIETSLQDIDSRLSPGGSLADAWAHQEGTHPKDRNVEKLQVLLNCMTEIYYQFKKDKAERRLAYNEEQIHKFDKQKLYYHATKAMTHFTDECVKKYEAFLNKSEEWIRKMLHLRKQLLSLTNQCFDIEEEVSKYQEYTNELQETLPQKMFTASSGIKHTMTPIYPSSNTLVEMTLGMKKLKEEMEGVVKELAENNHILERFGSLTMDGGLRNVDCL
# experiment.summary: FRET-based Z'-LYTE TBK1 enzymatic assay
# Format: biochemical
# Set-up: purchased Thermo Scientific A31513
# condition.label: compound at 10 μM; 100 µM ATP; read-out: TBK1 inhibition (%) 10 μM

{"columns": ["compound", "unit.string", "inhibition at 10 µM"],
 "data": [
  ["CC(C)n1cnc2ccc(-c3n[nH]c4ncc(-c5ccc(CN6CCN(C)CC6)cc5)cc34)cc21 [Compound 15e]", "%", 108],
  ["CN1CCN(Cc2ccc(-c3cnc4[nH]nc(-c5ccc6[nH]cnc6c5)c4c3)cc2)CC1 [Compound 15d]", "%", 102],
  ["CC(C)n1cnc2ccc(-c3n[nH]c4ncc(-c5ccc(C(N)=O)cc5)cc34)cc21 [Compound 15h]", "%", 103],
  ["CC(=O)Nc1cc(-c2cnc3[nH]nc(-c4ccc5ncn(C(C)C)c5c4)c3c2)ccn1 [Compound 15j]", "%", 103],
  ["CC(C)n1cnc2ccc(-c3n[nH]c4ncc(-c5ccc(S(N)(=O)=O)cc5)cc34)cc21 [Compound 15i]", "%", 111],
  ["CN1CCN(Cc2ccc(-c3cnc4[nH]nc(-c5cccc6cnccc56)c4c3)cc2)CC1 [Compound 15f]", "%", 101],
  ["CC(C)n1cnc2ccc(-c3n[nH]c4ncc(-c5ccc(C(=O)N6CCN(C)CC6)cc5)cc34)cc21 [Compound 15g]", "%", 108],
  ["COC(=O)c1cccc(-c2cnc3[nH]nc(-c4ccc5ncn(C(C)C)c5c4)c3c2)c1 [Compound 15k]", "%", 106]
]}
